From: the kinase profiling compilation of Christmann-Franck et al. (2016)

target: UniProt Q9UKE5; assay: KINOMEscan competition binding; details: compound 10.0 µM
Sequence (Q9UKE5 whole entry, looked up): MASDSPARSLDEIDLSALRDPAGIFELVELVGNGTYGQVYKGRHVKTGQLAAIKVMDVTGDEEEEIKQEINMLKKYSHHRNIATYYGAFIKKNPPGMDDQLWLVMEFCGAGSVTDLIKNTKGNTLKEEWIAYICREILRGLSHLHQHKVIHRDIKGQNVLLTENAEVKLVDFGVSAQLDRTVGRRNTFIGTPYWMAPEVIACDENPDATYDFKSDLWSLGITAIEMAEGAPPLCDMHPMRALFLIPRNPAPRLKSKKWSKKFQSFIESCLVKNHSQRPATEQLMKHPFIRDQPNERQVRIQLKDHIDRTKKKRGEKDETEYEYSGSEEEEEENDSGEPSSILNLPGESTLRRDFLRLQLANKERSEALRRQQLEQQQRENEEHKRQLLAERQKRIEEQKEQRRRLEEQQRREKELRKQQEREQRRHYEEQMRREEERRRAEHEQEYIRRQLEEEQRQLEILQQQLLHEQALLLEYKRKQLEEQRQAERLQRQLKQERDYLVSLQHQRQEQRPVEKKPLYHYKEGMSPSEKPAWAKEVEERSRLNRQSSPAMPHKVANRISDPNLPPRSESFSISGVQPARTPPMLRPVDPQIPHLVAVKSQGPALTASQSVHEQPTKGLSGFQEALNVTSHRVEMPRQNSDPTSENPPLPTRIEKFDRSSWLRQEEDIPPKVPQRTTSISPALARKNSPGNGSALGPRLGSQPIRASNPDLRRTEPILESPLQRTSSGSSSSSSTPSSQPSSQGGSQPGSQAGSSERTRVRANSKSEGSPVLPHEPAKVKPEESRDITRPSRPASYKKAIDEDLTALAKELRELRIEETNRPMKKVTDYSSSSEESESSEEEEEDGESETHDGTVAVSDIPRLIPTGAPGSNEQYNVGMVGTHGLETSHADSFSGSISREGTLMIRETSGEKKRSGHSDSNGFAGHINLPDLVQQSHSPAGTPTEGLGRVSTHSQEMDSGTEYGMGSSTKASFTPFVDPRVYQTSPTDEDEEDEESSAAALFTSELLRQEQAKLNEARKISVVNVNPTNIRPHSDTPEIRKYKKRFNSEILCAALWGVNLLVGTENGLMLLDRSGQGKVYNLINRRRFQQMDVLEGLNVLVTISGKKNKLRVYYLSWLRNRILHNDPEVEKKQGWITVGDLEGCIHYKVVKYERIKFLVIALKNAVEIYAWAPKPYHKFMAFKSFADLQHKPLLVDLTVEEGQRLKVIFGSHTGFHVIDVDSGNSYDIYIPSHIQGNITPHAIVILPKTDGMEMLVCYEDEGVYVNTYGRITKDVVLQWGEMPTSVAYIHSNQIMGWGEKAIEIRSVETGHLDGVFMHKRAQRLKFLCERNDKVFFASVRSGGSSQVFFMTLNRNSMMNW
READOUT TYPE: kinase still bound, per cent of control
Write the numeric value and follow it with the unit.

Entry `CCN1CCN(Cc2ccc(NC(=O)c3ccc(C)c(/C=C/c4cnc(Nc5cc(N6CCNCC6)nc(C)n5)cn4)c3)cc2C(F)(F)F)CC1` , UniProt Q9UKE5 data, kinase still bound, per cent of control value: 1.9%

Entry `CCN1CCN(Cc2ccc(NC(=O)c3ccc(C)c(Oc4ccnc5[nH]ccc45)c3)cc2C(F)(F)F)CC1` , UniProt Q9UKE5 data, kinase still bound, per cent of control value: 8.2%

Entry `COc1cc(N2CCC(N3CCN(C)CC3)CC2)ccc1Nc1ncc(Cl)c(Nc2ccccc2S(=O)(=O)C(C)C)n1` , UniProt Q9UKE5 data, kinase still bound, per cent of control value: 12%

Entry `CCOc1cc(N2CCC(N3CCCCC3)CC2)ccc1Nc1nc(Nc2ccccc2S(=O)(=O)C(C)C)c2cn[nH]c2n1` , UniProt Q9UKE5 data, kinase still bound, per cent of control value: 87%

---

target: ABL2 (human) (UniProt P42684); assay: KINOMEscan competition binding; conditions: compound 10.0 µM
Sequence (P42684 whole entry, looked up): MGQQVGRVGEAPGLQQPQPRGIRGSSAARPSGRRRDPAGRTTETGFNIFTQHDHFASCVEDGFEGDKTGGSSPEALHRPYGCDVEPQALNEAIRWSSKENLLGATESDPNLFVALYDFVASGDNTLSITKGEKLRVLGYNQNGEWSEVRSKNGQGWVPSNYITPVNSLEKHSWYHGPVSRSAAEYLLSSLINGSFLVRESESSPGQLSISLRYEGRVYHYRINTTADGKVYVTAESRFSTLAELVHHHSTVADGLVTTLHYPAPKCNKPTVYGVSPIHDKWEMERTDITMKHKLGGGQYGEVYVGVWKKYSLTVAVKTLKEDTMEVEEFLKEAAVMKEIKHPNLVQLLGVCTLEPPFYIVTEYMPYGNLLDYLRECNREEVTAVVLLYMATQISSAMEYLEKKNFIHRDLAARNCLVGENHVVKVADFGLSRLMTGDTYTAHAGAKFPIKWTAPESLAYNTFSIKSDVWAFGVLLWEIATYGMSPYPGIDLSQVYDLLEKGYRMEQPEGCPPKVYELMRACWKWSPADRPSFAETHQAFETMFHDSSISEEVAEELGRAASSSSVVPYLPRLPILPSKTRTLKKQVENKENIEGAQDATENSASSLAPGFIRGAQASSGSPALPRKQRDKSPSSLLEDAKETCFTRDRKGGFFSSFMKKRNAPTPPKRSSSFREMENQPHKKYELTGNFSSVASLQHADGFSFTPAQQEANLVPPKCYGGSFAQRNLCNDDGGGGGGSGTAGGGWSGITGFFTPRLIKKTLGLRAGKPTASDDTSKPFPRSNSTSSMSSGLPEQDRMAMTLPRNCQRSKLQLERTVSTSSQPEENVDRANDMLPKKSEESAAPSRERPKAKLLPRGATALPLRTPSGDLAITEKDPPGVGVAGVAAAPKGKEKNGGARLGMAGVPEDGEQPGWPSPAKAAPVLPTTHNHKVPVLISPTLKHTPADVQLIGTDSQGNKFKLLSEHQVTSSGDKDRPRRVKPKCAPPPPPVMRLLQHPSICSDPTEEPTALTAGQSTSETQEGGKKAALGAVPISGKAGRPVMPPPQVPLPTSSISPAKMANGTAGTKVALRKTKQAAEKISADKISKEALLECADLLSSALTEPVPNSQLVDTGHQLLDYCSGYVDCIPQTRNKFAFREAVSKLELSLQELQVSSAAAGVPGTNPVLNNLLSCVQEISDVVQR
READOUT TYPE: kinase still bound, per cent of control
Write the numeric value and follow it with the unit.

Record summary for `COc1cc(N2CCC(N3CCN(C)CC3)CC2)ccc1Nc1ncc(Cl)c(Nc2ccccc2S(=O)(=O)C(C)C)n1` : reported kinase still bound, per cent of control = 1.4%

Record summary for `CCN1CCN(Cc2ccc(NC(=O)c3ccc(C)c(Oc4ccnc5[nH]ccc45)c3)cc2C(F)(F)F)CC1` : reported kinase still bound, per cent of control = 0.6%

Record summary for `CCN1CCN(Cc2ccc(NC(=O)c3ccc(C)c(/C=C/c4cnc(Nc5cc(N6CCNCC6)nc(C)n5)cn4)c3)cc2C(F)(F)F)CC1` : reported kinase still bound, per cent of control = 0.7%

Record summary for `CCOc1cc(N2CCC(N3CCCCC3)CC2)ccc1Nc1nc(Nc2ccccc2S(=O)(=O)C(C)C)c2cn[nH]c2n1` : reported kinase still bound, per cent of control = 97%

---

Kindly state kinase still bound, per cent of control for each of the entries shown.
target: SYK (human) (UniProt P43405); assay: KINOMEscan competition binding; details: compound 10.0 µM
Quick note: give the figure in %, leave out the unit.

Record summary for `CCOc1cc(N2CCC(N3CCCCC3)CC2)ccc1Nc1nc(Nc2ccccc2S(=O)(=O)C(C)C)c2cn[nH]c2n1` : reported kinase still bound, per cent of control = 100

Record summary for `COc1cc(N2CCC(N3CCN(C)CC3)CC2)ccc1Nc1ncc(Cl)c(Nc2ccccc2S(=O)(=O)C(C)C)n1` : reported kinase still bound, per cent of control = 3.4

Record summary for `CCN1CCN(Cc2ccc(NC(=O)c3ccc(C)c(Oc4ccnc5[nH]ccc45)c3)cc2C(F)(F)F)CC1` : reported kinase still bound, per cent of control = 6.2

Record summary for `CCN1CCN(Cc2ccc(NC(=O)c3ccc(C)c(/C=C/c4cnc(Nc5cc(N6CCNCC6)nc(C)n5)cn4)c3)cc2C(F)(F)F)CC1` : reported kinase still bound, per cent of control = 15

---

target: CDK5 (human); experiment: KINOMEscan competition binding; conditions: compound 10.0 µM
READOUT TYPE: kinase still bound, per cent of control (%)
Quick note: give the figure in %, leave out the unit.

Record summary for `CCN1CCN(Cc2ccc(NC(=O)c3ccc(C)c(/C=C/c4cnc(Nc5cc(N6CCNCC6)nc(C)n5)cn4)c3)cc2C(F)(F)F)CC1` : reported kinase still bound, per cent of control = 96

Record summary for `CCN1CCN(Cc2ccc(NC(=O)c3ccc(C)c(Oc4ccnc5[nH]ccc45)c3)cc2C(F)(F)F)CC1` : reported kinase still bound, per cent of control = 19

Record summary for `COc1cc(N2CCC(N3CCN(C)CC3)CC2)ccc1Nc1ncc(Cl)c(Nc2ccccc2S(=O)(=O)C(C)C)n1` : reported kinase still bound, per cent of control = 5.2

Record summary for `CCOc1cc(N2CCC(N3CCCCC3)CC2)ccc1Nc1nc(Nc2ccccc2S(=O)(=O)C(C)C)c2cn[nH]c2n1` : reported kinase still bound, per cent of control = 96
